assay: Pharmacokinetics in ICR mice after intravenous and intragastric administration; format: in vivo; conditions: male, ICR, mouse, plasma, po, 5 mg/kg, PO 5 mg/kg, ICR mice, Mean; read-out: Tmax
measured-endpoint: Tmax

Previously resolved entries follow.
COc1ncc(-c2nc3c(n2C(C)C)[C@H](c2ccc(Cl)cc2)N(c2cc(Cl)cn(C)c2=O)C3=O)c(OC)n1 [HDM201, reference compound]; 0.5 h
COc1cc(OC)c(-c2nc3c(n2C(C)C)[C@@]2(C(=O)Nc4cc(Cl)ccc42)N(c2cc(Cl)ccc2C)C3=O)cn1; 1.33 h
COc1ccc(-c2nc3c(n2C(C)C)[C@@]2(C(=O)Nc4cc(Cl)ccc42)N(c2cc(Cl)ccc2C)C3=O)c(OC)c1; 1.33 h
COc1cc(N(C)C)ccc1-c1nc2c(n1C(C)C)[C@@]1(C(=O)Nc3cc(Cl)ccc31)N(c1cc(Cl)ccc1C)C2=O; 0.83 h
COc1ncc(-c2nc3c(n2C(C)C)[C@@]2(C(=O)Nc4cc(Cl)ccc42)N(c2cc(Cl)ccc2C)C3=O)c(OC)n1; 1.67 h

response.value for COc1ncc(-c2nc3c(n2C(C)C)[C@@]2(C(=O)Nc4cc(Cl)ccc42)N(c2cccc(Cl)c2)C3=O)c(OC)n1 (field: Tmax) = 1 h
